Values compiled from patent EP4700040A1.

This section presents sequences with their documented PCT+ values.
- Tested on: PCT
- Test method notes: Second library screening for PCT detection, clone supernatants, retest with CTZ-h (Example 4)
- Type: biochemical, human
- Condition label: luminescence signal value with MBP-PCT 3.3 ng/ml; large subunit-rSCFV5 12.5 nM; CTZ-h 25 µM, 60 s

Worked examples, 4 sequences total:
>>> df
          item_sequence  value_type  experimental_result
0  VSGYRLFDRVW [RC-220]        PCT+                 6738
1  VEGWRLFDRVS [RC-237]        PCT+                10821
2  VNGWRIFDKKS [RC-242]        PCT+                 9037
3  VDGWRLFERKS [RC-171]        PCT+                10309

Input line: What value of PCT+ has been recorded for this entry: VDGWRLFDKKS [RC-224]
Output line: 10561

Input line: What value of PCT+ has been recorded for this entry: VSGYRLFDKVS [RC-178]
Output line: 5708

---

- Tested on: PCT
- Test method notes: Signal-to-noise ratio and linear range for PCT detection, purified fusion proteins (Example 3)
- Format: biochemical, human
- Set-up: key: luminescence normalized against the background value
- Condition label: PCT 100 (pg/ml); normalized against the background value
- Text: […]
So basically, if luminescence value comes in under 10000 it's label 1, and if it's 10000 or more it's label 0.

In [3]: df
Out[3]:
         item_sequence      cat
0  VEGYRLFDRKL [RB135]  label 0

Input line: Confirm or reject: luminescence value of VEGYRLFDKKW [RB239] lies strictly below 10000
Output line: label 0

Input line: Confirm or reject: luminescence value of VEGYRLFEKVW [RB085] lies strictly below 10000
Output line: label 0

Input line: Confirm or reject: luminescence value of VDGWRLHEKIS [RA141] lies strictly below 10000
Output line: label 1

Input line: Confirm or reject: luminescence value of VTGYRLFEEIL [P114, reference compound] lies strictly below 10000
Output line: label 1

Input line: Confirm or reject: luminescence value of VSGWRIHEKIS [RA120] lies strictly below 10000
Output line: label 0

Input line: Confirm or reject: luminescence value of VEGYRLFDRKS [RB073] lies strictly below 10000
Output line: label 0

Input line: Confirm or reject: luminescence value of VEGYRLFNKEW [RB284] lies strictly below 10000
Output line: label 1

Input line: Confirm or reject: luminescence value of VEGWRLHEKIS [RA116] lies strictly below 10000
Output line: label 0

---

- System: PCT
- Test method notes: Complementation of purified rSCFV18-small subunit mutant fusion protein with large subunit-rSCFV5 fusion protein, PCT gradient (Example 2)
- Assay type: biochemical, human
- Condition label: PCT 37.04 pg/ml; CTZ-h 25 µM, 20 s
This section presents sequences with their documented luminescence value values.
Could you keep your reply to the number by itself?

Worked examples, 5 sequences total:
>>> df
                            item_sequence          value_type  experimental_result
0                     VEGYRLFEKVW [RB085]  luminescence value                  932
1  VTGYRLFEEIL [P114, reference compound]  luminescence value                  435
2                     VEGWRLHEKIS [RA116]  luminescence value                 1212
3                     VEGYRLFDRKS [RB073]  luminescence value                 1013
4                     VEGYRLFDRKL [RB135]  luminescence value                  943

Let's switch to this sequence now.
Input line: What value of luminescence value has been recorded for this entry: VEGYRLFDKKW [RB239]
Output line: 590
